Biological target: Alpha-2C adrenergic receptor (Homo sapiens) (UniProt P18825)
Sequence (P18825 whole entry, looked up): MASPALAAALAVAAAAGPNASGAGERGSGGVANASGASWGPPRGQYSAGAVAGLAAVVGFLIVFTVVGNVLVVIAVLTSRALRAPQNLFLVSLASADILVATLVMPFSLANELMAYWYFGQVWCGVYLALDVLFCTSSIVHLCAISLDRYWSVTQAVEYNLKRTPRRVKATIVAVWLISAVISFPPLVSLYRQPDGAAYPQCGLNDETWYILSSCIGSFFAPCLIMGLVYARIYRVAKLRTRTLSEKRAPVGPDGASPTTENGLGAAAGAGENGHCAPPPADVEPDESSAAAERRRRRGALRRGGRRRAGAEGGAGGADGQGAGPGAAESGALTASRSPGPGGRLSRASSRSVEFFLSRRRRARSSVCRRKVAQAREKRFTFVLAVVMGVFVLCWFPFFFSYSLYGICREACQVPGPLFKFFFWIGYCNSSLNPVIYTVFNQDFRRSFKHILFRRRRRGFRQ
Test: compounds altering alpha2C-coupled GIRK flux – cell-based, HEK293 alpha2C/GIRK1/2, thallium flux, primary screen (AID 624);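 note: slope of fluorescence ratio to pre-addition baseline per second over 15 to 24 s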
Conditions: thallium flux BTC fluorescence, at 10 µM, actives lie on both sides
The source made the active and inactive calls.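 Rule for the calls: active = fluorescence slope after compound addition differing from the mean of all screened samples at 99.7% confidence, in either direction; inactive = the rest.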
Output constraint: value belongs to label 1 (active), label 0 (inactive)

These recorded examples may help you get a feel for the data.
>>> class_name("CCC(=O)Oc1ccc(C/C(=N\\O)c2ccc(O)cc2O)o1")
"label 0"
>>> class_name("CC(C)(C)NS(=O)(=O)c1ccc(CCC(=O)O)cc1")
"label 0"
>>> class_name("Cc1ccc(N2C(N)=NC(N)=NC23CCCC3)c(C)c1")
"label 0"

Exercise: Could you check what this test reported for COc1ccc(CN(CC(=O)NCC2CCCO2)C(=O)CCC(=O)Nc2cc(C)on2)cc1 (stereo not given) ?
Key: label 0

Exercise: Could you check what this test reported for CC1CN(c2nc3ccccc3nc2C(C#N)C(=O)OC2CCCCC2)CC(C)O1 (stereo not given) ?
Key: label 1

Exercise: Could you check what this test reported for CCC(c1nnc(SCC(=O)Nc2ccc(C(=O)Nc3ccccc3OC)cc2)o1)N(C)C (stereo not given) ?
Key: label 0

Exercise: Could you check what this test reported for CN1C(=O)C(O)(CC(=O)c2ccccc2O)c2cc(Br)ccc21 (stereo not given) ?
Key: label 0

Exercise: Could you check what this test reported for CC(=O)NC1CC2CCCC(C1)N2CC(=O)Nc1ccccc1 (stereo not given) ?
Key: label 0

Exercise: Could you check what this test reported for CCOc1ccc(S(=O)(=O)Nc2cccc(Cl)c2)cc1 ?
Key: label 0

Exercise: Could you check what this test reported for CCOP(=O)(c1ccc(N(C)C)cc1)C(O)c1c(Cl)cccc1Cl (stereo not given) ?
Key: label 0

Exercise: Could you check what this test reported for Cc1cc(NC(=O)CCCC(=O)Nc2ccc(F)cc2)no1 ?
Key: label 0

Exercise: Could you check what this test reported for COc1ccccc1-c1cc(C(=O)Nc2cc(C)nn2-c2ccccc2)no1 ?
Key: label 0

Exercise: Could you check what this test reported for O=C(CN1C(=O)c2ccccc2S1(=O)=O)Nc1ccc(S(=O)(=O)N2CCCCCC2)cc1 ?
Key: label 0

Exercise: Could you check what this test reported for NS(=O)(=O)c1ccc(NC(=O)CSc2nnc(Cc3cccs3)n2-c2ccccc2)cc1 ?
Key: label 0

Exercise: Could you check what this test reported for CCCC(OC(=O)CN1C(=O)COc2ccccc21)C(=O)NC1CCCC1 (stereo not given) ?
Key: label 0

Exercise: Could you check what this test reported for Clc1cccc(Cl)c1COc1ccncc1 ?
Key: label 0

Exercise: Could you check what this test reported for CC(C)COC(=O)C(C#N)c1nc2ccccc2nc1N1CCN(Cc2ccccc2)CC1 (stereo not given) ?
Key: label 0

Exercise: Could you check what this test reported for OC(CN1CCOCC1)Cn1c(-c2cccc(Cl)c2)nc2ccccc21 (stereo not given) ?
Key: label 0

Exercise: Could you check what this test reported for CCCS(=O)(=O)C(=C1Nc2ccccc2N1)S(=O)(=O)CCC ?
Key: label 0
